# Target system: NADPH oxidase 5 (Homo sapiens)
# Assay name: NOX5-dependent H2O2 signal modulators, primary screen, NOX inhibitor project, cell-based, HEK293-NOX5, Amplex Red fluorescence (AID 1161)
# Condition: HEK293-NOX5, ionomycin, 45 min, higher = more signal
Please respond with reported z-score for every item in the list.
Please give the numeric answer without any surrounding text.

Request: Entry COCCOC(=O)N1C(=O)[C@@]2(c3cc(C#CCC(C(=O)OC)C(=O)OC)ccc31)[C@H](C(=O)Nc1nc3ccccc3s1)[C@H]1C(=O)O[C@H](c3ccccc3)[C@H](c3ccccc3)N1[C@@H]2c1ccccc1OCCO has what z-score?
Result: 0.234

Request: Entry O=C1C2C=CC(C(O)Cc3ccccc3)N(n3cnnc3)C2C(=O)N1Cc1ccccc1 (configuration not stated) has what z-score?
Result: -1.36

Request: Entry CC1(C)[C@@H]2CC(C(O)C3C=CC4C(=O)N(c5ccccc5)C(=O)C4N3Nc3ccc([N+](=O)[O-])cc3)=C[C@H]1C2 (some centres not stated) has what z-score?
Result: -2.02

Request: Entry O=C1C2C=CC(C(O)c3cccc4ccccc34)N(Nc3ccccc3F)C2C(=O)N1c1ccccc1 (configuration not stated) has what z-score?
Result: -1.21

Request: Entry CO[C@H]1O[C@H](CO)[C@@H](OC(=O)Nc2cccc(F)c2)[C@H](OC(=O)Nc2ccccc2)[C@@H]1OC(=O)Nc1ccccc1 has what z-score?
Result: -1.08

Request: Entry COc1ccccc1CN1C(=O)c2ccccc2[C@@H](C(=O)NC2CC2)[C@@H]1c1ccc(CO)cc1 has what z-score?
Result: 0.718

Request: Entry Oc1ccc2cc[n+](Cc3sc4ccccc4c3Cl)cc2c1 has what z-score?
Result: -0.1
